Tested on: rice
Assay: Test C flooded paddy test
Assay type: in vivo, Oryza sativa
Details: 62 g ai/ha, scale 0 to 100 (0 no effect, 100 complete control)
recorded endpoint: Rice plant response rating

Some solved cases for reference:
| compound string | Rice plant response rating |
| --- | --- |
| CCOc1cccc(NC(=O)c2cc(C(C)(C)C)nn2CC)c1 | 30 |
| CCc1nc(C(C)(C)C)sc1C(=O)Nc1cccc(C(=O)N(C)CC)c1 | 35 |
| CCOC(=O)c1cc(NC(=O)c2cc(C(C)(C)C)nn2CC)c(F)cc1OC | 75 |
| C#CCNC(=O)c1cccc(NC(=O)c2cc(C(C)(C)C)nn2CC)n1 | 0 |

We next turn to a different molecule, shown below.
-- ask Return value of Rice plant response rating for input `CCn1nc(C(C)(C)C)cc1C(=O)Nc1cccc(OCCCF)c1` , no commentary.
-- reply 5
